Reported Average EC50, HEK-Blue IL-2R (CD122+, CD132+) Reporter Assay, MMP2 cleaved molecule values for a set of binders
# assayed target: T1, IL-2Rβγ on HEK-Blue IL-2Rβγ reporter cells (InvivoGen) (UniProt P14784 27-551; P31785 23-369, limits assumed)
# T1 sequence (looked up) 1: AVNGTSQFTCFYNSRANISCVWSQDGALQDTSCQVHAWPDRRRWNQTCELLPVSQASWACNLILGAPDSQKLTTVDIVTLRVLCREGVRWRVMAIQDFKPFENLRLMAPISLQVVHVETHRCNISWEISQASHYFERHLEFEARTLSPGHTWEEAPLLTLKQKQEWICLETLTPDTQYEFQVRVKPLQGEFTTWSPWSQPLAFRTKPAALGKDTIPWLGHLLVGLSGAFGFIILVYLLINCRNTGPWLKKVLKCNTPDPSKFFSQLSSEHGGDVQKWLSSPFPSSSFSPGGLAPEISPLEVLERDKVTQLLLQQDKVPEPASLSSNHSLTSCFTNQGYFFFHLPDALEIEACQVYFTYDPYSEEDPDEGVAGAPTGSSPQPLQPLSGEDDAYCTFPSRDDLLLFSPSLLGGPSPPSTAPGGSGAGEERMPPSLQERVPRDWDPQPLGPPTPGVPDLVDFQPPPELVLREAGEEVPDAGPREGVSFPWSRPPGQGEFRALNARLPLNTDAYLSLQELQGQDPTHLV
# T1 sequence (looked up) 2: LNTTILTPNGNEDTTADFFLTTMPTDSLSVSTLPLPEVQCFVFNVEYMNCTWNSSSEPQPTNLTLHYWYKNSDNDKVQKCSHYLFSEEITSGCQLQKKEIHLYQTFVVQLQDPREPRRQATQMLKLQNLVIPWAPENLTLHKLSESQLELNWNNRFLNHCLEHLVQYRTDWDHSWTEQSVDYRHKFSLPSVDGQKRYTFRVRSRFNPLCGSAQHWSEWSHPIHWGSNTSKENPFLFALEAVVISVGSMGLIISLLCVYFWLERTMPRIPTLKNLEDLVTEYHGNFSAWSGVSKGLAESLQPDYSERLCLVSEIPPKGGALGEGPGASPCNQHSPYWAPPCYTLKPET
# assay summary: cell-based or functional assay
Primed or numbered codes have the meaning given here. [ ]: non-standard residue; d: D form. 8x polyethylene glycol‑amino = O-(8x polyethylene glycol-amino)-tyrosine, SITE 45; 9x polyethylene glycol‑azido = O-(9x polyethylene glycol-azido)-tyrosine, SITE 42; Ygp(4) = Tyr with amino-capped PEG8 (O-(8x polyethylene glycol-amino)-tyrosine); Yn3(4) = Tyr with azide-capped PEG9 (O-(9x polyethylene glycol-azido)-tyrosine); Ygp = O-(8x polyethylene glycol-amino)-tyrosine (Tyr, amino-capped PEG8); Yn3 = O-(9x polyethylene glycol-azido)-tyrosine (Tyr, azide-capped PEG9); Ygp″ = O-(8x polyethylene glycol-amino)-tyrosine; Yn3″ = O-(9x polyethylene glycol-azido)-tyrosine; hSer = N[C@@H](CCO)C(=O)O; Nle = CCCC[C@H](N)C(=O)O
Form entry: value (nM) — number only.

Worked set:
binder	reported result
CMP-315, MMP2 cleaved (ligand, ends and bridges not checked; also: MMP2-cleaved, product after cut not given here, further groups not given here) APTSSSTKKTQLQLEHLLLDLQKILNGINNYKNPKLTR[Nle]L[hSer][Yn3(4)]KF[Ygp(4)][Nle]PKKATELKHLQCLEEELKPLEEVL[hSer]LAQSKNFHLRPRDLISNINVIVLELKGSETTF[hSer]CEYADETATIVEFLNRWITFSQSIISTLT	0.0418
CMP-304, MMP2 cleaved (ligand, ends and bridges not checked; also: MMP2 cleaved, ring opened, cut site and remnants not given here) PLGLAGAPTSSSTKKTQLQLEHLLLDLQEILNGINNYKNPKLTR[Nle]L[hSer][Yn3(4)]KF[Ygp(4)][Nle]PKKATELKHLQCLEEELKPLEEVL[hSer]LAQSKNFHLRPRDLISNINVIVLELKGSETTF[hSer]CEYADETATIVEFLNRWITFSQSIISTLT	0.021
CMP-316, MMP2 cleaved (ligand, ends and bridges not checked; also: further groups not given here, tested after MMP2 cleavage, remaining product not given here) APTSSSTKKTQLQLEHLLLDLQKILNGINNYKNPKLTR[Nle]L[hSer][Yn3]KF[Ygp][Nle]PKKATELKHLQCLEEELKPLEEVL[hSer]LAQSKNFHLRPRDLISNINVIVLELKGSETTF[hSer]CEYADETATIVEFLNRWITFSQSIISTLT	0.0963
CMP-329, MMP2 cleaved (ligand, ends and bridges not checked; also: after MMP2 cleavage, remnants of the Lys9–Glu23 peptide linker not given here) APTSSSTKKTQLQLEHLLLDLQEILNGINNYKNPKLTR[Nle]L[hSer][Yn3″]KF[Ygp″][Nle]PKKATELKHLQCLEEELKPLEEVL[hSer]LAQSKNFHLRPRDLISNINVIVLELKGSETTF[hSer]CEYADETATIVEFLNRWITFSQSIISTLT	0.0702
CMP-330, MMP2 cleaved (ligand, not fully specified; also: before the cut Lys9 and Glu23 side chains are bridged by a peptide linker, what remains after the cut not given here) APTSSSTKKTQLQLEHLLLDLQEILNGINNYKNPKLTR[Nle]L[hSer]Y(9x polyethylene glycol‑azido)KFY(8x polyethylene glycol‑amino)[Nle]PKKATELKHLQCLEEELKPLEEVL[hSer]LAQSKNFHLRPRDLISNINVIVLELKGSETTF[hSer]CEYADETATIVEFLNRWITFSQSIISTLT	0.558

Now look at this entry.
**Query** Returns the measured Average EC50, HEK-Blue IL-2R (CD122+, CD132+) Reporter Assay, MMP2 cleaved molecule for the input binder. Input: CMP-305, MMP2 cleaved (ligand, ends and bridges not checked; also: Glu15 and Lys23 side chains carried cleaved peptide linker, remnants after MMP2 cut not given here) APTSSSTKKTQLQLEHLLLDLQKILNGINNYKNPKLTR[Nle]L[hSer][Yn3(4)]KF[Ygp(4)][Nle]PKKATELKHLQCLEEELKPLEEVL[hSer]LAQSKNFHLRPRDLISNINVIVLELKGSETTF[hSer]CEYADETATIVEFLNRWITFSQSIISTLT
**Result** 0.0185

All values here come from patent US20240376170A1.
